Test: Resistance to degradation in fetal bovine serum
Type: in vitro ADME
Details: bovine, fetal bovine serum, 25% in water, fetal bovine serum 25% in water, 37° C., 1 h; read-out: remaining peptide, 1 h
Protocol: The resistance to proteolytic degradation of the hybrid peptides was assessed by exposing them for 6 h to serum peptidases in a fetal bovine serum solution^68, 69 (FIG. 5a and Table S4). […] Methods. […] The degradation kinetics were monitored by liquid chromatography and the percentage of peptide remaining was calculated by integrating the peptide peak area. […]
No end group written: not given here.
Reported remaining at 1 h is given for each of the following substances.
experimental endpoint: remaining at 1 h

In [3]: df
Out[3]:
                                  substance  result
0  FLGALWNVAKSVF-NH2 [VmCT1, reference compound]   < 10%
1                    SLGALINVLKSGG-NH2 [DV]    ~50%
2                    FLGTLWGGAKGVF-NH2 [VP]   < 20%
3  SLLSLIRKLIT-NH2 [Decoralin, reference compound]   < 30%
4  H-GLLKRIKTLL-NH2 [Anoplin, reference compound]    ~20%
5                    GLGALLNVIKSGL-NH2 [AV]    ~40%
